MIC values, listed per item
# System: gram negative bacteria
# Test: In vitro anti-bacterial activity assay (broth dilution MIC), gram negative bacteria
# Type: cell-based, E. coli
# Condition: Pseudomonas aeruginosa, 18 h, P. aeruginosa K201 PAO6609; read-out: Median MIC's G− P. aeruginosa K201 PAO6609
Endpoint name: MIC (µg/mL)

1. COC(C)CNCC(=O)c1ccc(O)c2c1C[C@H]1C[C@H]3[C@H](N(C)C)C(O)=C(C(N)=O)C(=O)[C@@]3(O)C(O)=C1C2=O (stereo partly drawn): 64
2. CN(C)Cc1ccc(-c2ccc(O)c3c2C[C@H]2C[C@H]4[C@H](N(C)C)C(O)=C(C(N)=O)C(=O)[C@@]4(O)C(O)=C2C3=O)[nH]1: 32
3. CN(CCC#N)Cc1cccc(-c2ccc(O)c3c2C[C@H]2C[C@H]4[C@H](N(C)C)C(O)=C(C(N)=O)C(=O)[C@@]4(O)C(O)=C2C3=O)c1: 64

###

# System: 3T3 fibroblast cells
# Test: In vitro phototoxicity assay (neutral red; UV light-treated vs dark control plates)
# Type: cell-based
# Condition: dark control plate
# Experimental: 3T3 fibroblast cells were harvested and plated at a concentration of 1×10^5 cells/mL and the plates were incubated overnight at 37° C., in 5% CO2 and approximately 95% humidity. […] Plates were then incubated in a dark drawer (for controls), or under UV light (meter reading of 1.6-1.8 mW/cm^2) for 50 minutes. […] A solution of 50% EtOH, 10% glacial acetic acid was added and after 20 minutes incubation the plate's absorbance at 535 nm was read using a Wallac Victor 5 spectrophotometer. […]
Endpoint name: Photo Toxicity Dark Tox50

1) CN(C)CCNC(=O)c1cccc(-c2ccc(O)c3c2C[C@H]2C[C@H]4[C@H](N(C)C)C(O)=C(C(N)=O)C(=O)[C@@]4(O)C(O)=C2C3=O)c1: >200 µM
2) CN(CCOC(C)(C)C)Cc1cccc(-c2ccc(O)c3c2C[C@H]2C[C@H]4[C@H](N(C)C)C(O)=C(C(N)=O)C(=O)[C@@]4(O)C(O)=C2C3=O)c1: >104.43 µM
3) CN(C)CCCNC(=O)c1cccc(-c2ccc(O)c3c2C[C@H]2C[C@H]4[C@@H](N(C)C)C(O)=C(C(N)=O)C(=O)[C@@]4(O)C(O)=C2C3=O)c1: >122.9 µM
4) CN(C)CCCCN(C)Cc1cccc(-c2ccc(O)c3c2C[C@H]2C[C@H]4[C@H](N(C)C)C(O)=C(C(N)=O)C(=O)[C@@]4(O)C(O)=C2C3=O)c1: >132.05 µM
5) CN(C)[C@@H]1C(O)=C(C(N)=O)C(=O)[C@@]2(O)C(O)=C3C(=O)c4c(O)ccc(-c5cccc(C(=O)NCC[N+](C)(C)C)c5)c4C[C@H]3C[C@@H]12: >123.61 µM
6) COC(C)CNCC(=O)c1ccc(O)c2c1C[C@H]1C[C@H]3[C@H](N(C)C)C(O)=C(C(N)=O)C(=O)[C@@]3(O)C(O)=C1C2=O (some centres unmarked): >145.98 µM
7) CN(C)[C@@H]1C(O)=C(C(N)=O)C(=O)[C@@]2(O)C(O)=C3C(=O)c4c(O)ccc(-c5cnc6ccccc6c5)c4C[C@H]3C[C@@H]12: >159.48 µM
8) CN(C)[C@@H]1C(O)=C(C(N)=O)C(=O)[C@@]2(O)C(O)=C3C(=O)c4c(O)ccc(-c5cccc(C(=O)NCCO)c5)c4C[C@H]3C[C@@H]12: >146.58 µM
9) CN(C)CCCNCc1cccc(-c2ccc(O)c3c2C[C@H]2C[C@H]4[C@H](N(C)C)C(O)=C(C(N)=O)C(=O)[C@@]4(O)C(O)=C2C3=O)c1: >137.23 µM
10) CCN(CC)CCNC(=O)c1cccc(-c2ccc(O)c3c2C[C@H]2C[C@H]4[C@@H](N(C)C)C(O)=C(C(N)=O)C(=O)[C@@]4(O)C(O)=C2C3=O)c1: >134.63 µM
11) CO/N=C/c1ccc(-c2ccc(O)c3c2C[C@H]2C[C@H]4[C@H](N(C)C)C(O)=C(C(N)=O)C(=O)[C@@]4(O)C(O)=C2C3=O)o1 (stereo in doubt): >156.79 µM

###

IC50 at 24 h values, listed per item
# Test: in vitro
# Format: cell-based
# Condition: Chinese hamster, Cytotox. CHO-K1
Endpoint name: IC50 at 24 h (µM)

1) CN(C)[C@@H]1C(O)=C(C(N)=O)C(=O)[C@@]2(O)C(O)=C3C(=O)c4c(O)ccc(-c5ccccc5)c4C[C@H]3C[C@@H]12: 6.91
2) CN(C)[C@@H]1C(O)=C(C(N)=O)C(=O)[C@@]2(O)C(O)=C3C(=O)c4c(O)ccc(-c5cccc(/C=C/C#N)c5)c4C[C@H]3C[C@@H]12: 9.41

###

# Tested on: 3T3 fibroblast cells
# Test: In vitro phototoxicity assay (neutral red; UV light-treated vs dark control plates)
# Type: cell-based
# Condition: UV light 50 minutes
Endpoint name: Photo Toxicity UV Tox50

1. CO/N=C/c1ccc(-c2ccc(O)c3c2C[C@H]2C[C@H]4[C@H](N(C)C)C(O)=C(C(N)=O)C(=O)[C@@]4(O)C(O)=C2C3=O)o1 (stereo in doubt): >156.79 µM
2. CN(C)[C@@H]1C(O)=C(C(N)=O)C(=O)[C@@]2(O)C(O)=C3C(=O)c4c(O)ccc(-c5cccc(/C=C/C#N)c5)c4C[C@H]3C[C@@H]12: >164.35 µM
3. CN(C)CCCNCc1cccc(-c2ccc(O)c3c2C[C@H]2C[C@H]4[C@H](N(C)C)C(O)=C(C(N)=O)C(=O)[C@@]4(O)C(O)=C2C3=O)c1: >137.23 µM
4. CN(CCC#N)Cc1cccc(-c2ccc(O)c3c2C[C@H]2C[C@H]4[C@H](N(C)C)C(O)=C(C(N)=O)C(=O)[C@@]4(O)C(O)=C2C3=O)c1: >136.45 µM
5. COc1ccc(CN(C)C)cc1-c1ccc(O)c2c1C[C@H]1C[C@H]3[C@H](N(C)C)C(O)=C(C(N)=O)C(=O)[C@@]3(O)C(O)=C1C2=O: >146.03 µM
6. CC(=O)Nc1cccc(-c2ccc(O)c3c2C[C@H]2C[C@H]4[C@H](N(C)C)C(O)=C(C(N)=O)C(=O)[C@@]4(O)C(O)=C2C3=O)c1: >162.66 µM
7. CN(C)CCCCNCc1cccc(-c2ccc(O)c3c2C[C@H]2C[C@H]4[C@H](N(C)C)C(O)=C(C(N)=O)C(=O)[C@@]4(O)C(O)=C2C3=O)c1: >134.59 µM
8. CN(C)CCCc1cccc(-c2ccc(O)c3c2C[C@H]2C[C@H]4[C@H](N(C)C)C(O)=C(C(N)=O)C(=O)[C@@]4(O)C(O)=C2C3=O)c1: >200 µM

###

Photo Toxicity UV Tox50 values, listed per item
# Test system: 3T3 fibroblast cells
# Test: In vitro phototoxicity assay (neutral red; UV light-treated vs dark control plates)
# Type: cell-based
# Condition: UV light 50 minutes
Endpoint name: Photo Toxicity UV Tox50

1. COCCNC(=O)c1cccc(-c2ccc(O)c3c2C[C@H]2C[C@H]4[C@H](N(C)C)C(O)=C(C(N)=O)C(=O)[C@@]4(O)C(O)=C2C3=O)c1: >151.25 µM
2. CN(C)[C@@H]1C(O)=C(C(N)=O)C(=O)[C@@]2(O)C(O)=C3C(=O)c4c(O)ccc(-c5cccc(CCCN)c5)c4C[C@H]3C[C@@H]12: 64.8 µM
3. CN(C)[C@@H]1C(O)=C(C(N)=O)C(=O)[C@@]2(O)C(O)=C3C(=O)c4c(O)ccc(C(=O)CNCc5ccccn5)c4C[C@H]3C[C@@H]12: >133.75 µM
4. CN(C)c1cc(-c2cccc(C(N)=O)c2)c(O)c2c1C[C@H]1C[C@H]3[C@H](N(C)C)C(O)=C(C(N)=O)C(=O)[C@@]3(O)C(O)=C1C2=O: >146.26 µM
5. COCCNCC(=O)c1ccc(O)c2c1C[C@H]1C[C@H]3[C@H](N(C)C)C(O)=C(C(N)=O)C(=O)[C@@]3(O)C(O)=C1C2=O: >157.68 µM
6. CN(C)[C@@H]1C(O)=C(C(N)=O)C(=O)[C@@]2(O)C(O)=C3C(=O)c4c(O)ccc(C(=O)CNc5cccnc5)c4C[C@H]3C[C@@H]12: >152.86 µM
7. CN(C)CCCNC(=O)c1cccc(-c2ccc(O)c3c2C[C@H]2C[C@H]4[C@@H](N(C)C)C(O)=C(C(N)=O)C(=O)[C@@]4(O)C(O)=C2C3=O)c1: >122.9 µM
8. CN1CCN(C(=O)c2cccc(-c3ccc(O)c4c3C[C@H]3C[C@H]5[C@@H](N(C)C)C(O)=C(C(N)=O)C(=O)[C@@]5(O)C(O)=C3C4=O)c2)CC1: >130.51 µM
9. CN(C)[C@@H]1C(O)=C(C(N)=O)C(=O)[C@@]2(O)C(O)=C3C(=O)c4c(O)ccc(C(=O)CN5CCN(C6CCCCC6)CC5)c4C[C@H]3C[C@@H]12: >122.93 µM
10. CNCCNC(=O)c1cccc(-c2ccc(O)c3c2C[C@H]2C[C@H]4[C@H](N(C)C)C(O)=C(C(N)=O)C(=O)[C@@]4(O)C(O)=C2C3=O)c1: >143.16 µM
11. CN(C)CCCNC(=O)c1cccc(-c2ccc(O)c3c2C[C@H]2C[C@H]4[C@H](N(C)C)C(O)=C(C(N)=O)C(=O)[C@@]4(O)C(O)=C2C3=O)c1 [J]: >130.13 µM
